measurement.target: human TrkA (Homo sapiens (Human), UniProt P04629)
Sequence (P04629 440-796): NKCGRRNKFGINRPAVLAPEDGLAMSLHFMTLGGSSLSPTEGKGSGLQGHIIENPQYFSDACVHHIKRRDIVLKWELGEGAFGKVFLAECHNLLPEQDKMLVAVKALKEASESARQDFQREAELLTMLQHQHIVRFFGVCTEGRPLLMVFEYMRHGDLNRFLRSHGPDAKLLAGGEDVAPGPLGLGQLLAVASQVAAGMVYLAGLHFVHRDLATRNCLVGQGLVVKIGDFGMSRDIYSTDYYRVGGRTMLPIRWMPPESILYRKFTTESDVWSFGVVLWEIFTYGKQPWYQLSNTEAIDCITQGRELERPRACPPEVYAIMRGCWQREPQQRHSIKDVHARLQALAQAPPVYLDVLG
method.description: Human TrkA inhibition assay (Test Example 2)
Format: biochemical
reported.conditions: Table 153, human TrkA inhibition; read-out: IC50
Listed here are compounds together with their documented IC50.

Below, 5 compounds whose answers are already recorded.
* CNC(=O)c1cc(-c2nn(-c3ccccc3)c(NC(=O)N[C@@H]3CN(Cc4csnn4)O[C@H]3c3ccc(F)c(F)c3)c2C)cn(C)c1=O (racemic) [Compound I-151] | < 100 nM
* CCNC(=O)c1cc(-c2nn(-c3ccccc3)c(NC(=O)N[C@@H]3CN(CCOC)O[C@H]3c3ccnc(F)c3)c2C)cnc1OC (racemic) [Compound I-110] | < 100 nM
* COCCN1C[C@@H](NC(=O)Nc2c(C)c(-c3cnc4c(c3)nnn4C)nn2-c2ccccc2)[C@H](c2ccc(F)cc2)O1 (racemic) [Compound I-118] | < 100 nM
* COCCN1C[C@@H](NC(=O)Nc2c(C)c(-c3cnc(N4CC(O)C4)nc3)nn2-c2ccccc2)[C@H](c2ccnc(F)c2)O1 (racemic) [Compound I-144] | < 100 nM
* CNC(=O)c1cc(-c2nn(-c3ccccc3)c(NC(=O)N[C@@H]3CN(CCOC)O[C@H]3c3ccnc(F)c3)c2C)cnc1OC (racemic) [Compound I-100] | < 100 nM

Endpoint output: IC50 of COCCN1C[C@H](NC(=O)Nc2c(C)c(OCC(C)(C)O)nn2-c2ccccc2)[C@@H](c2cnc(F)c(F)c2)O1 [Compound I-83] . Value?
> 1000 nM
